target: CDK5/p25 (Homo sapiens); construct: purchased Invitrogen PR8543B; test: Enzymatic assay for CDK5 (FRET based LANCE Ultra kinase assay); format: biochemical; settings: read-out: CDK5 enzymatic activity (IC50 range)
Sequence (Q00535 whole entry): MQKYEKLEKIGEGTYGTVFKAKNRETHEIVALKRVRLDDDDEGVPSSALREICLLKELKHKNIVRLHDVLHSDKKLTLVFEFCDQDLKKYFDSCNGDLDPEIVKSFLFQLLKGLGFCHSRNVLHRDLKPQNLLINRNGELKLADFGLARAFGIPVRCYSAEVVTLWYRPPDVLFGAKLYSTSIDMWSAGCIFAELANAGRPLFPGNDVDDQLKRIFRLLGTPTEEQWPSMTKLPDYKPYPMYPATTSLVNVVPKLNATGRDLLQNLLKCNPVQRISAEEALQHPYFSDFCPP
Sequence (Q15078 99-307 partner limits assumed): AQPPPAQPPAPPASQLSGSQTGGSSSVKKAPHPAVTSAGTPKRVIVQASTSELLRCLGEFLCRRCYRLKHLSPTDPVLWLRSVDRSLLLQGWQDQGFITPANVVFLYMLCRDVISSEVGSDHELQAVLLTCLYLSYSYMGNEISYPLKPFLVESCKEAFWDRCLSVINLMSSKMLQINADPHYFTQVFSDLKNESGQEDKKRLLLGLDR
measured_parameter: IC50

compound	IC50
CC(C)c1cnn2c(NCc3c[nH]c4ccccc34)nc(N3CCC(N)CC3)nc12 [Compound 28]	100 to 1000 nM

Query (compound): CC(C)c1cnn2c(NCc3ccccc3-c3ccc4ccccc4n3)nc(NC[C@H]3CCNC[C@@H]3O)nc12 [Compound 225] ; field requested: IC50 100 to 1000 nM

Query (compound): CC(C)c1cnn2c(NCc3ccccc3-n3cc(C(=O)Nc4ccccc4)cn3)nc(N3CCC(N)CC3)nc12 [Compound 152] ; field requested: IC50 < 100 nM

Query (compound): CC(C)c1cnn2c(NCc3ccccc3-c3ccc4[nH]ncc4c3)nc(N3CCC(N)CC3)nc12 [Compound 137] ; field requested: IC50 < 100 nM
